Values were extracted from PubChem BioAssay AID1159580.

- Experiment description: chemical genetic growth profiling, strain panel (AID 1159580);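 note: tested at 20 µM; growth read once vehicle control cultures reached saturation at 30 °C; 1 = growth at the plate median or of vehicle wells; lower values mean less growth of the strain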
- Assay setup: S. cerevisiae deletion strains, growth OD, locus YNL322C, strain KRE1 (second series), stronger effect = lower value
Out of some 5,500 compounds screened, about 2,000 (36%) were called active. Inconclusive results (about 18%) are left out. Some of the results follow.
One threshold, 1, splits the recorded normalized growth values: lower ones are Satisfied, equal or higher ones are Not satisfied.

Known results for compounds:
- Compound: "CS(=O)(=O)c1ccc(C2=C(c3ccccc3)C(=O)OC2)cc1"
  Assigned label: "Satisfied"
- Compound: "CC(=O)OCC(=O)[C@@]1(O)CCC2C3CCC4=CC(=O)CC[C@]4(C)C3C(=O)C[C@@]21C (some centres undefined)"
  Assigned label: "Satisfied"
- Compound: "COc1ccc2cc([C@H](C)C(=O)O)ccc2c1"
  Assigned label: "Satisfied"
- Compound: "CC1=C(/C=C/C(C)=C/C=C/C(C)=C/C=C/C=C(C)/C=C/C=C(C)/C=C/C(=O)[C@]2(C)C[C@@H](O)CC2(C)C)C(C)(C)C[C@H](O)C1"
  Assigned label: "Not satisfied"

Okay, next one:
In plain terms, does CC(=O)OCC(=O)[C@H]1CCC2C3CCC4=CC(=O)CC[C@]4(C)C3CC[C@@]21C (some centres undefined) come in under 1 for normalized growth?
Satisfied

====

- Experiment description: chemical genetic growth profiling, strain panel (AID 1159580)
- Assay setup: S. cerevisiae deletion strains, growth OD, locus YKR001C, strain vps1, stronger effect = lower value
Hit rate of the full screen: of about 5,500 compounds, about 2,000 (36%) were called active. Roughly 18% stayed inconclusive and do not appear here. This is one part of the list.
This section presents molecules with their documented normalized growth values.
Please reply with the value in numeric form only.

- Molecule: "C[C@H]1CC2C([C@@H](O)C[C@@]3(C)C2CC[C@]3(O)C(=O)CO)[C@@]2(C)C=CC(=O)C=C12 (stereo partly specified)"
  normalized growth: 1.02
- Molecule: "CC(C)(O)[C@@H]1[C@H]2OC(=O)[C@@H]1[C@]1(O)C[C@H]3O[C@]34C(=O)O[C@H]2[C@]14C"
  normalized growth: 1.05
- Molecule: "Cc1cc(O)c(C=O)c(O)c1C(=O)O"
  normalized growth: 1.03
- Molecule: "Cc1cccc(C)c1OCC(C)N (stereo unspecified)"
  normalized growth: 0.99
- Molecule: "CCOC(=O)CCC(=O)O[C@H]1[C@H](O[C@@H]2[C@@H](C)[C@H](O[C@H]3C[C@@](C)(OC)[C@@H](O)[C@H](C)O3)[C@@H](C)C(=O)O[C@H](CC)[C@@](C)(O)[C@H](O)[C@@H](C)C(=O)[C@H](C)C[C@@]2(C)O)O[C@H](C)C[C@@H]1N(C)C"
  normalized growth: 0.981

// next entry
I'd like to know its normalized growth. The molecule in question is COc1cc(O)c(C(=O)/C=C/c2ccccc2)c(OC)c1
0.642

====

- Experiment description: chemical genetic growth profiling, strain panel (AID 1159580)
- Assay setup: S. cerevisiae deletion strains, growth OD, locus YEL003W, strain gim4, stronger effect = lower value
Out of some 5,500 compounds screened, about 2,000 (36%) were called active. Inconclusive results (about 18%) are left out. This is one part of the list.
Assay metric: normalized growth
Please reply with the value in numeric form only.

A selection of reference data follows.
- Compound: "Oc1cc(Cl)ccc1Oc1ccc(Cl)cc1Cl"
  Result value: 0.0524
- Compound: "COc1ccc2c(c1OC)C(=O)O[C@@H]2[C@H]1c2cc3c(cc2CCN1C)OCO3"
  Result value: 1.01

I'd like to know its normalized growth. The compound in question is Cc1cccc(C)c1OCC(C)N (centres undefined)
1.01

I'd like to know its normalized growth. The compound in question is CCN(CC)CCCC(C)Nc1c2ccc(Cl)cc2nc2ccc(OC)cc12 (centres undefined)
1.01

====

- Experiment description: chemical genetic growth profiling, strain panel (AID 1159580)
- Assay setup: S. cerevisiae deletion strains, growth OD, locus YNL298W, strain CLA4, stronger effect = lower value
The campaign covered roughly 5,500 compounds. About 2,000 (36%) were called active. Roughly 18% stayed inconclusive and do not appear here. The list shows a part of the results.
Assay metric: normalized growth
Please reply with the value in numeric form only.

- Compound: "CCC(C)C(=O)O[C@H]1[C@H](O)C2C(CN3CC(C)CCC3[C@@]2(C)O)C2C[C@]34O[C@]5(O)C(OC(=O)C(C)(O)C(C)O)CC[C@@]3(C)C5C(OC(C)=O)[C@@H](OC(C)=O)C4[C@@]21O (some centres not stated)"
  Assay metric: "normalized growth"
  Result value: 0.986
- Compound: "CCOC(=O)C1(O)Oc2cc(OC)cc(OC)c2C(=O)C1c1ccccc1 (configuration not stated)"
  Assay metric: "normalized growth"
  Result value: 1.02
- Compound: "COc1cc2c(cc1OC)C1C(=O)c3c(cc4c(c3O)C=CC(C)(C)O4)OC1CO2 (configuration not stated)"
  Assay metric: "normalized growth"
  Result value: 1
- Compound: "C[C@H]1CC2C([C@@H](O)C[C@@]3(C)C2CC[C@]3(O)C(=O)CO)[C@@]2(C)C=CC(=O)C=C12 (some centres not stated)"
  Assay metric: "normalized growth"
  Result value: 1.01
- Compound: "O=C(O)c1cc2ccccc2c(Cc2c(O)c(C(=O)O)cc3ccccc23)c1O"
  Assay metric: "normalized growth"
  Result value: 0.983
- Compound: "CC(=O)OCC(=O)[C@@]1(O)CCC2C3CCC4=CC(=O)CC[C@]4(C)C3C(=O)C[C@@]21C (some centres not stated)"
  Assay metric: "normalized growth"
  Result value: 1.02

I'd like to know its normalized growth. The compound in question is CC(=O)NC1SCCC1=O (configuration not stated)
1.01

====

- Experiment description: chemical genetic growth profiling, strain panel (AID 1159580);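 note: tested at 20 µM; growth read once vehicle control cultures reached saturation at 30 °C; 1 = growth at the plate median or of vehicle wells; lower values mean less growth of the strain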
- Assay setup: S. cerevisiae deletion strains, growth OD, locus YNL298W, strain CLA4 (second series), stronger effect = lower value
About 2,000 (36%) of roughly 5,500 compounds were called active. Inconclusive results (about 18%) are left out. Some of the results follow.
Class field: derived from normalized growth; ranges low bracket = under 0.9, middle bracket = from 0.9 up to 1, high bracket = 1 and over

- Structure: "CCO/C=C1\\SC(=S)N(CCc2ccccc2)C1=O"
  Assigned label: "low bracket"

Sort into band: CCOC(=O)COc1nc(-c2cccs2)cc(C(F)(F)F)c1C#N
middle bracket

====

This section presents molecules with their documented normalized growth values.
- Experiment description: chemical genetic growth profiling, strain panel (AID 1159580);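 note: tested at 20 µM; growth read once vehicle control cultures reached saturation at 30 °C; 1 = growth at the plate median or of vehicle wells; lower values mean less growth of the strain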
- Assay setup: S. cerevisiae deletion strains, growth OD, locus YJL187C, strain SWE1 (second series), stronger effect = lower value
Among all 5,500 compounds or so, about 2,000 (36%) were called active. Inconclusive results (about 18%) are left out. The list shows a part of the results.

A selection of reference data follows.
- Molecule: "CC(=O)NC1SCCC1=O (configuration not stated)"
  normalized growth: "0.989 (inactive)"
- Molecule: "C=C(C)[C@@H]1[C@H]2OC(=O)[C@@H]1[C@]1(O)C[C@H]3O[C@]34C(=O)O[C@H]2[C@]14C"
  normalized growth: "0.986 (inactive)"
- Molecule: "COc1cc(NS(=O)(=O)c2ccc(N)cc2)nc(OC)n1"
  normalized growth: "0.994 (inactive)"
- Molecule: "CCOC(=O)[C@H](CCc1ccccc1)N[C@H]1CCc2ccccc2N(CC(=O)O)C1=O"
  normalized growth: "0.986 (inactive)"
- Molecule: "C[C@]12CC(=O)C3C(CC[C@@H]4C[C@H](O)CC[C@]34C)C1CC[C@]2(O)C(=O)CO (some centres not stated)"
  normalized growth: "1 (inactive)"

I'd like to know its normalized growth. The molecule in question is C[C@@H]1[C@H]2[C@H](O[C@@H]3O[C@H](CO)[C@@H](O)[C@H](O)[C@H]3O)OC=C(C(=O)O)[C@H]2C[C@@H]1O
0.987 (inactive)

I'd like to know its normalized growth. The molecule in question is CC1=C(CC(=O)O)c2cc(F)ccc2/C1=C\c1ccc(S(C)=O)cc1 (configuration not stated)
1.01 (inactive)

====

This section presents molecules with their documented normalized growth values.
- Experiment description: chemical genetic growth profiling, strain panel (AID 1159580);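 note: tested at 20 µM; growth read once vehicle control cultures reached saturation at 30 °C; 1 = growth at the plate median or of vehicle wells; lower values mean less growth of the strain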
- Assay setup: S. cerevisiae deletion strains, growth OD, locus YER155C, strain BEM2 (second series), stronger effect = lower value
Hit rate of the full screen: of about 5,500 compounds, about 2,000 (36%) were called active. Roughly 18% stayed inconclusive and do not appear here. Some of the results follow.
Please reply with the value in numeric form only.

A selection of reference data follows.
- Molecule: "COc1ccc(OC)c(C(O)C(C)N)c1 (centres undefined)"
  normalized growth: 0.988
- Molecule: "O=C(O)C1(O)C[C@@H](O)C(O)[C@H](O)C1 (some centres undefined)"
  normalized growth: 0.969
- Molecule: "C[C@H]1CC2C([C@@H](O)C[C@@]3(C)C2CC[C@]3(O)C(=O)CO)[C@@]2(C)C=CC(=O)C=C12 (some centres undefined)"
  normalized growth: 0.989

// next entry
I'd like to know its normalized growth. The molecule in question is CN(C)C(=S)SSC(=S)N(C)C
0.0839
